- protocol.text: Phase 1b study in female adults with cystitis, plasma PK
- Format: in vivo, human
- assay.context: female, human, plasma, oral, 300 mg, plasma, Day 1, PO300; read-out: Tmax, Geo. Mean

[
  {
    "chemical.structure": "CN(C)c1cc(CNCC(C)(C)C)c(O)c2c1C[C@H]1C[C@H]3[C@H](N(C)C)C(O)=C(C(N)=O)C(=O)[C@@]3(O)C(O)=C1C2=O",
    "unit.text": "h",
    "Tmax": 2.96
  }
]

###

- Test system: K. pneumoniae ESBL−
- protocol.text: In vitro MIC, 2010 surveillance isolates
- Type: cell-based, Klebsiella pneumoniae
- assay.context: L. Amer; N=160

[
  {
    "molecule": "CO/N=C(\\C(=O)N[C@@H]1C(=O)N2C(C(=O)O)=C(CSc3nc(=O)c(=O)[nH]n3C)CS[C@H]12)c1csc(N)n1 [Ceftriaxone]",
    "system.under.test": "K. pneumoniae ESBL−",
    "inequality.symbol": "=",
    "MIC90 (µg/mL)": 0.12
  },
  {
    "molecule": "CN(C)c1cc(NC(=O)CNC(C)(C)C)c(O)c2c1C[C@H]1C[C@H]3[C@H](N(C)C)C(O)=C(C(N)=O)C(=O)[C@@]3(O)C(O)=C1C2=O [Tigecycline]",
    "system.under.test": "K. pneumoniae ESBL−",
    "inequality.symbol": "=",
    "MIC90 (µg/mL)": 0.5
  },
  {
    "molecule": "CO/N=C(\\C(=O)N[C@@H]1C(=O)N2C(C(=O)[O-])=C(C[N+]3(C)CCCC3)CS[C@H]12)c1csc(N)n1 [Cefepime]",
    "system.under.test": "K. pneumoniae ESBL−",
    "inequality.symbol": "≤",
    "MIC90 (µg/mL)": 0.12
  },
  {
    "molecule": "NCC[C@H](O)C(=O)N[C@@H]1C[C@H](N)[C@@H](O[C@H]2O[C@H](CN)[C@@H](O)[C@H](O)[C@H]2O)[C@H](O)[C@H]1O[C@H]1O[C@H](CO)[C@@H](O)[C@H](N)[C@H]1O [Amikacin]",
    "system.under.test": "K. pneumoniae ESBL−",
    "inequality.symbol": "=",
    "MIC90 (µg/mL)": 2
  },
  {
    "molecule": "C[C@H]1COc2c(N3CCN(C)CC3)c(F)cc3c(=O)c(C(=O)O)cn1c23 [Levofloxacin]",
    "system.under.test": "K. pneumoniae ESBL−",
    "inequality.symbol": "=",
    "MIC90 (µg/mL)": 1
  },
  {
    "molecule": "CN(C)c1cc(CNCC(C)(C)C)c(O)c2c1C[C@H]1C[C@H]3[C@H](N(C)C)C(O)=C(C(N)=O)C(=O)[C@@]3(O)C(O)=C1C2=O [Compound 1]",
    "system.under.test": "K. pneumoniae ESBL−",
    "inequality.symbol": "=",
    "MIC90 (µg/mL)": 4
  },
  {
    "molecule": "C[C@@H](O)[C@H]1C(=O)N2C(C(=O)O)=C(SCCN=CN)C[C@H]12 [Imipenem]",
    "system.under.test": "K. pneumoniae ESBL−",
    "inequality.symbol": "=",
    "MIC90 (µg/mL)": 0.25
  },
  {
    "molecule": "C[C@H]1c2cccc(O)c2C(=O)C2=C(O)[C@]3(O)C(=O)C(C(N)=O)=C(O)[C@@H](N(C)C)[C@@H]3[C@@H](O)[C@@H]21 [Doxycycline]",
    "system.under.test": "K. pneumoniae ESBL−",
    "inequality.symbol": ">",
    "MIC90 (µg/mL)": 8
  }
]

###

Entries and their MIC90
- System: K. pneumoniae ESBL−
- protocol.text: In vitro MIC, 2010 surveillance isolates
- Format: cell-based, Klebsiella pneumoniae
- assay.context: Asia/Pac; N=189

[
  {
    "compound": "C[C@H]1COc2c(N3CCN(C)CC3)c(F)cc3c(=O)c(C(=O)O)cn1c23",
    "MIC90": "1 µg/mL"
  },
  {
    "compound": "CO/N=C(\\C(=O)N[C@@H]1C(=O)N2C(C(=O)[O-])=C(C[N+]3(C)CCCC3)CS[C@H]12)c1csc(N)n1 [Cefepime]",
    "MIC90": "≤ 0.12 µg/mL"
  },
  {
    "compound": "C[C@@H](O)[C@H]1C(=O)N2C(C(=O)O)=C(SCCN=CN)C[C@H]12",
    "MIC90": "0.5 µg/mL"
  }
]

###

- Tested on: E. coli ESBL−
- protocol.text: In vitro MIC, 2010 surveillance isolates
- Type: cell-based, Escherichia coli
- assay.context: Europe; N=1533
Entries and their MIC90
measured.quantity: MIC90 (µg/mL)

[
  {
    "molecule": "C[C@@H](O)[C@H]1C(=O)N2C(C(=O)O)=C(SCCN=CN)C[C@H]12",
    "measured.quantity": "MIC90",
    "inequality.symbol": "≤",
    "result.value": 0.12
  },
  {
    "molecule": "CN(C)c1cc(NC(=O)CNC(C)(C)C)c(O)c2c1C[C@H]1C[C@H]3[C@H](N(C)C)C(O)=C(C(N)=O)C(=O)[C@@]3(O)C(O)=C1C2=O",
    "measured.quantity": "MIC90",
    "inequality.symbol": "=",
    "result.value": 0.25
  },
  {
    "molecule": "CO/N=C(\\C(=O)N[C@@H]1C(=O)N2C(C(=O)[O-])=C(C[N+]3(C)CCCC3)CS[C@H]12)c1csc(N)n1 [Cefepime]",
    "measured.quantity": "MIC90",
    "inequality.symbol": "≤",
    "result.value": 0.12
  },
  {
    "molecule": "CO/N=C(\\C(=O)N[C@@H]1C(=O)N2C(C(=O)O)=C(CSc3nc(=O)c(=O)[nH]n3C)CS[C@H]12)c1csc(N)n1",
    "measured.quantity": "MIC90",
    "inequality.symbol": "=",
    "result.value": 0.12
  },
  {
    "molecule": "C[C@H]1c2cccc(O)c2C(=O)C2=C(O)[C@]3(O)C(=O)C(C(N)=O)=C(O)[C@@H](N(C)C)[C@@H]3[C@@H](O)[C@@H]21",
    "measured.quantity": "MIC90",
    "inequality.symbol": ">",
    "result.value": 8
  },
  {
    "molecule": "C[C@H]1COc2c(N3CCN(C)CC3)c(F)cc3c(=O)c(C(=O)O)cn1c23",
    "measured.quantity": "MIC90",
    "inequality.symbol": ">",
    "result.value": 4
  },
  {
    "molecule": "CN(C)c1cc(CNCC(C)(C)C)c(O)c2c1C[C@H]1C[C@H]3[C@H](N(C)C)C(O)=C(C(N)=O)C(=O)[C@@]3(O)C(O)=C1C2=O",
    "measured.quantity": "MIC90",
    "inequality.symbol": "=",
    "result.value": 2
  },
  {
    "molecule": "NCC[C@H](O)C(=O)N[C@@H]1C[C@H](N)[C@@H](O[C@H]2O[C@H](CN)[C@@H](O)[C@H](O)[C@H]2O)[C@H](O)[C@H]1O[C@H]1O[C@H](CO)[C@@H](O)[C@H](N)[C@H]1O",
    "measured.quantity": "MIC90",
    "inequality.symbol": "=",
    "result.value": 4
  }
]

###

- protocol.text: Phase 1b study in female adults with cystitis, plasma PK
- Assay type: in vivo, human
- assay.context: female, human, plasma, intravenous, 200 mg, plasma, Day 1, IV_PO300; read-out: Cmax, Geo. Mean

[
  {
    "chemical.structure": "CN(C)c1cc(CNCC(C)(C)C)c(O)c2c1C[C@H]1C[C@H]3[C@H](N(C)C)C(O)=C(C(N)=O)C(=O)[C@@]3(O)C(O)=C1C2=O",
    "Cmax [µg/mL]": 1.96
  }
]

###

- System: MS CoNS
- protocol.text: In vitro MIC, 2010 surveillance isolates
- Format: cell-based, Coagulase-Negative Staphylococcus
- assay.context: N America; CLSI breakpoints
Entries and their % R (resistance)

[
  {
    "compound": "C[C@H]1COc2c(N3CCN(C)CC3)c(F)cc3c(=O)c(C(=O)O)cn1c23 [Levofloxacin]",
    "% R (resistance) (%)": 23.6
  },
  {
    "compound": "C[C@H]1c2cccc(O)c2C(=O)C2=C(O)[C@]3(O)C(=O)C(C(N)=O)=C(O)[C@@H](N(C)C)[C@@H]3[C@@H](O)[C@@H]21 [Doxycycline]",
    "% R (resistance) (%)": 0.5
  },
  {
    "compound": "CO/N=C(\\C(=O)N[C@@H]1C(=O)N2C(C(=O)O)=C(CSc3nc(=O)c(=O)[nH]n3C)CS[C@H]12)c1csc(N)n1 [Ceftriaxone]",
    "% R (resistance) (%)": 0
  },
  {
    "compound": "CN[C@H](CC(C)C)C(=O)N[C@H]1C(=O)N[C@@H](CC(N)=O)C(=O)N[C@H]2C(=O)N[C@H]3C(=O)N[C@H](C(=O)N[C@H](C(=O)O)c4cc(O)cc(O)c4-c4cc3ccc4O)[C@H](O)c3ccc(c(Cl)c3)Oc3cc2cc(c3O[C@@H]2O[C@H](CO)[C@@H](O)[C@H](O)[C@H]2O[C@H]2C[C@](C)(N)[C@H](O)[C@H](C)O2)Oc2ccc(cc2Cl)[C@H]1O [Vancomycin]",
    "% R (resistance) (%)": 0
  }
]
